Origin of values: PubChem BioAssay AID463075

test: inhibitors of TNF-alpha triggered necroptosis, primary screen, cell-based, Jurkat FADD-/-, single concentration (AID 463075); conditions: Jurkat FADD-/- TNF necroptosis rescue, ATP luminescence, 24 h; at 10 µM; active compounds read high; 0 = TNF only, 100 = no-TNF cells;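 further: necroptosis triggered by 40 ng/mL TNF-alpha added together with compound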
The campaign covered roughly 220,000 compounds. About 150 (0.068%) were called active. The sample as a whole holds a higher share of actives than the screen did.
Exercise: for every item that follows, state its recorded activation (protection from cell death).
Answers are plain numbers, in %.

Here are 4 compounds together with their reported answers.
COc1ccc(S(=O)(=O)N2CCN(C(=O)c3cc(C)oc3C)CC2)cc1 2.28
CCN(CC)CCNC(=O)c1ccc(NC(=O)c2c(F)cccc2Cl)cc1 -0.132
Cn1nccc1NC(=O)Nc1ccc(OC(F)(F)F)cc1 2.9
COc1ccc(OC)c(-c2c(=O)n(OCc3ccccc3Br)c3ccccc3[n+]2[O-])c1 0.8

Below are 5 compounds. Give each one its activation (protection from cell death).
1. C=CCNc1nc(N)c(C(=C(C#N)C#N)c2ccccc2)s1
2. CC(=O)Nc1nc2c(s1)C(=O)NCC(C)(C)C2
3. CCOC(=O)/C(=N\Nc1cc(Cl)ccc1Cl)N1CCN(C)CC1
4. O=C(C1=C[C@H](c2coc3ccccc3c2=O)C[C@H](OCc2ccc(CO)cc2)O1)N1CCOCC1
5. C[C@@H]1C[C@@H]2O[C@H]2/C=C\C=C\C(=O)Cc2c(Cl)c(O)cc(O)c2C(=O)O1

Output line:
[-6.24, 0.16, 7.63, 0.365, 36.6]
